Biological target: wt human LRRK2 (Homo sapiens)
Construct: wt human LRRK2, catalytic site, catalytic site (ThermoFisher/USA)
Sequence (Q5S007 970-2527 limits assumed): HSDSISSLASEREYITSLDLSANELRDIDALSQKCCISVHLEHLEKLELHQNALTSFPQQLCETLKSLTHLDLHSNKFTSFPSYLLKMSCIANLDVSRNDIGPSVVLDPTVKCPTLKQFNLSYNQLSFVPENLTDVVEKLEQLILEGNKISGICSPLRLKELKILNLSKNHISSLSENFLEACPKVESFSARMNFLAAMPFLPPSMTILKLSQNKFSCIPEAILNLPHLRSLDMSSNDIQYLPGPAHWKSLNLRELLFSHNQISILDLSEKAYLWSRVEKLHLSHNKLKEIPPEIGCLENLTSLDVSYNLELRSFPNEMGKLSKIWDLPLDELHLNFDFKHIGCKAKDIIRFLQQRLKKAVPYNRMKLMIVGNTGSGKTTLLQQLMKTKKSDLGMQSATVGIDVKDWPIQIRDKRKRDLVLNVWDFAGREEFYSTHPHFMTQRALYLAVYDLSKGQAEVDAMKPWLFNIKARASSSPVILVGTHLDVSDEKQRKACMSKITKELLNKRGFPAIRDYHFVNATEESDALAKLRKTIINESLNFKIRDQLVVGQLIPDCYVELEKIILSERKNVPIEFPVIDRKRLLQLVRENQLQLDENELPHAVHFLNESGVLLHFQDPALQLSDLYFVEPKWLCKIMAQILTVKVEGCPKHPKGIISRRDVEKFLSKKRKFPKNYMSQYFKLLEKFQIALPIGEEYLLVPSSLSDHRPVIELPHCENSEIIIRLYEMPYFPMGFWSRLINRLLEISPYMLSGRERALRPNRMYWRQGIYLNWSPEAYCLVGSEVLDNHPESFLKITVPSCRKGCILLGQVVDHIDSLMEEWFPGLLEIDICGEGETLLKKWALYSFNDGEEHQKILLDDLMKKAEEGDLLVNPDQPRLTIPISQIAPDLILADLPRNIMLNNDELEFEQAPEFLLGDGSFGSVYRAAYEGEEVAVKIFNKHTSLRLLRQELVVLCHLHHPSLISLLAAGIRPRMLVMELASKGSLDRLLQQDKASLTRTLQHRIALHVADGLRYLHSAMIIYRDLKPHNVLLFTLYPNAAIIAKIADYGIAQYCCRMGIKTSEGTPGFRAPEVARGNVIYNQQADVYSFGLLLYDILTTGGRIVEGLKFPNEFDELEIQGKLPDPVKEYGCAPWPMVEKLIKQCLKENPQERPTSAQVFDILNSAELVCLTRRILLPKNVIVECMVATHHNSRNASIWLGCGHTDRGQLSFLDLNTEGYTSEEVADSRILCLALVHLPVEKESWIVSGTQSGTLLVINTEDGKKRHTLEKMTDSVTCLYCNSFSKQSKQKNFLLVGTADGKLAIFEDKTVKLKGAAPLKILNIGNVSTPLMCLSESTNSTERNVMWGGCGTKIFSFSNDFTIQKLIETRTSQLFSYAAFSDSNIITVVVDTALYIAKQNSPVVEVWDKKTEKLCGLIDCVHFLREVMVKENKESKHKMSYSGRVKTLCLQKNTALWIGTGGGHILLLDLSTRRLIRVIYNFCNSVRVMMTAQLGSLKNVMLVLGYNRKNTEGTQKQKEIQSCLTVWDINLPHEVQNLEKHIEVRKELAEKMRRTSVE
Test: TR-FRET LanthaScreen Tb Kinase Activity Assay, inhibition of LRRK2 kinase
Settings: 2 nM wt human LRRK2, 400 nM fluorescein-ERM (LRRKtide) peptide, 38 µM ATP, 15 min pre-incubation, 120 min at room temperature
endpoint: IC50

As a guide, the following entries are already answered.
Query: IC50; subject: Fc1cccc(F)c1C1=Nc2c(Cl)cnn2-c2cc(N3CCCOCC3)ccc2N1
< 50 nM

Try OC1CCN(c2ccc3c(c2)-n2ncc(Cl)c2N=C(c2c(F)cccc2F)N3)C1 (racemic) next.
< 50 nM

Try C[C@H]1CN(c2cc3c(cn2)NC(c2c(F)cccc2F)=Nc2c(F)cnn2-3)CCO1 next.
< 50 nM

Hi, could you look up IC50 for each item in my list?
1. CN(C)C(=O)c1ccc2c(c1)-n1ncc(Cl)c1N=C(c1c(F)cccc1F)N2
2. CC(C)(C)NC(=O)c1ccc2c(c1)-n1ncc(Cl)c1N=C(c1c(F)cccc1F)N2
3. C[C@@H]1COCCN1c1ccc2c(c1)-n1ncc(Cl)c1N=C(c1c(F)cccc1F)N2
4. C[C@H]1CN(c2cc3c(cn2)NC(c2c(F)cccc2F)=Nc2c(F)cnn2-3)C[C@H](C)O1
5. Fc1cccc(F)c1C1=Nc2c(Cl)cnn2-c2cc(N3C4CCC3COC4)ccc2N1

1. 50 to 200 nM
2. < 50 nM
3. < 50 nM
4. 50 to 200 nM
5. < 50 nM
